experiment: viability loss of HPDE-C7K cells – cell-based, fluorescence, HTS, primary screen (AID 431); conditions: HPDE-C7K KRASV12 cells, Alamar Blue viability, 48 h; at 10 µM
Out of some 63,000 compounds screened, about 1,100 (1.7%) were called active.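 Rule for the calls: active = compounds whose percent cytotoxicity in the single-dose primary screen, scaled between solvent and toxic-drug controls, exceeds 50; inactive = the rest.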 The sample as a whole holds a higher share of actives than the screen did. Potency and affinity values are given separately.
// classify into active, inactive

What did this assay record as the result for COc1ccc2c(c1)CCc1c(C(=O)Nc3ccn(Cc4ccc(C)cc4)n3)noc1-2 ? inactive

What did this assay record as the result for COc1cccc(-c2nc(NC(C)(C)C)c3ccccc3n2)c1O ? inactive

What did this assay record as the result for CCOC(=O)c1ccccc1NC(=O)CN1CCC(n2nnc3cc(F)ccc32)CC1 ? inactive

What did this assay record as the result for C=CCNc1nc(-c2cccc(OC)c2O)nc2ccccc12 ? inactive

What did this assay record as the result for Cc1cccc(N(C)S(=O)(=O)c2cccc3nsnc23)c1 ? inactive

What did this assay record as the result for CCC(C)Nc1nc(-c2cccc(OC)c2O)nc2ccccc12 (configuration not stated) ? active

What did this assay record as the result for COc1cccc(-c2nc(NC(C)C)c3ccccc3n2)c1O ? inactive

What did this assay record as the result for COc1cccc(-c2nc(N3CCCCC3C)c3ccccc3n2)c1O (configuration not stated) ? active

What did this assay record as the result for Cc1nnc(Sc2nc(Sc3nnc(C)s3)nc(N3CCN(C)CC3)n2)s1 ? active

What did this assay record as the result for Oc1ccc2oc3c(c2c1/C=N/n1cnnc1)CCCC3 ? inactive

What did this assay record as the result for Cc1cnc(NC(=O)CSc2ncc(-c3ccccc3)n2Cc2ccco2)s1 ? inactive

What did this assay record as the result for CCN(CC)c1nc(-c2cccc(OC)c2O)nc2ccccc12 ? inactive

What did this assay record as the result for Fc1cccc(F)c1CN1CCN(c2ncccn2)CC1 ? inactive

What did this assay record as the result for COc1ccccc1NC(=O)CN1CCC(n2nnc3cc(F)ccc32)CC1 ? inactive

What did this assay record as the result for COC(=O)c1c(NC(=O)CSc2nc3c(c(=O)n(C)c(=O)n3C)n2C(C)C)sc(C)c1C ? inactive

What did this assay record as the result for Oc1ccc(Nc2nc(NCC3CCCO3)c3ccccc3n2)cc1 (configuration not stated) ? inactive

What did this assay record as the result for CCOC(=O)c1sc2nc(NC(=O)C(C)(C)C)sc2c1C ? inactive

What did this assay record as the result for CCOC(=O)N1CCN(C(=O)CCS(=O)(=O)c2ccc(Br)s2)CC1 ? inactive

What did this assay record as the result for CCOC(=O)CSC1=C(C#N)C(c2ccccc2C)C2=C(CCCC2=O)N1 (configuration not stated) ? inactive

What did this assay record as the result for CCC(=O)Nc1cc(NC(=O)CSc2ncc(-c3ccc(F)cc3)n2Cc2ccco2)ccc1C ? inactive

What did this assay record as the result for Cc1nnc(SCCn2c(N3CCN(C)CC3)nc3c2c(=O)n(C)c(=O)n3C)s1 ? inactive

What did this assay record as the result for CCOC(=O)c1c(NC(=O)CSc2nc3c(c(=O)n(C)c(=O)n3C)n2C(C)C)sc(C)c1C ? active

====

test: viability loss of HPDE-C7K cells – cell-based, fluorescence, HTS, primary screen (AID 431); conditions: HPDE-C7K KRASV12 cells, Alamar Blue viability, 48 h; at 10 µM
About 1,100 (1.7%) of roughly 63,000 compounds were called active.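 How the source made its calls: active means compounds whose percent cytotoxicity in the single-dose primary screen, scaled between solvent and toxic-drug controls, exceeds 50; inactive means the rest.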 The sample holds actives, similar compounds and a random draw of the others, so the mix is not that of the screen. Measured potencies and affinities stand elsewhere.
// classify into active, inactive

What did this assay record as the result for COc1cc(C(=O)N2CCN(c3cc(Cl)ccc3Cl)CC2)cc(OC)c1OC ? active

What did this assay record as the result for COc1ccc(Cl)cc1NS(=O)(=O)c1ccc(S(=O)(=O)N2CCCC2)cc1 ? inactive

What did this assay record as the result for Cn1c(SCc2nc3ccccc3[nH]2)nnc1-c1cccs1 ? inactive

What did this assay record as the result for CC(C)Cc1nc(C(N)=O)c2[nH]c(=O)n(-c3ccc(F)cc3)c2n1 ? inactive

What did this assay record as the result for CC(=O)Nc1cc2c(cc1C(=O)C(C)C)OCCO2 ? inactive

What did this assay record as the result for CN(C)C=Nc1ncc2c([nH]c3ccccc32)c1C#N ? inactive

What did this assay record as the result for O=C(Nc1ccc(C(=O)Oc2ccccc2)c(O)c1)c1ccco1 ? inactive

What did this assay record as the result for c1ccc2c(c1)ncn2Cc1nnc2sc(-c3ccncc3)nn12 ? inactive

What did this assay record as the result for O=C(Cc1cn2ccsc2n1)Nc1nc2c(s1)CN(Cc1ccccc1)CC2 ? inactive

What did this assay record as the result for O=C(Nc1cccc(-c2nc3ccccc3[nH]2)c1)c1ccco1 ? inactive

What did this assay record as the result for COc1ccc2c(c1)c(=O)cc(C)n2CC(=O)NCc1ccco1 ? inactive

What did this assay record as the result for O=C(c1ccc(S(=O)(=O)N2CCCC2)cc1)N1CCN(Cc2ccc3c(c2)OCO3)CC1 ? inactive

What did this assay record as the result for COC(=O)c1ccc(S(=O)(=O)N2C3CCC2CC(NC(=O)NC2CCCCC2)C3)cc1 (configuration not stated) ? inactive

What did this assay record as the result for c1cn2cc(CN3CCOCC3)nc2s1 ? inactive

What did this assay record as the result for Cc1occc1-c1nnc(SCc2nc3ccccc3c(=O)n2CC#N)n1C ? inactive

What did this assay record as the result for Cc1cccc(NC(=O)CSc2n[nH]c(-c3ccncc3)n2)c1 ? inactive

What did this assay record as the result for N#Cc1c(NC(=O)CSc2nnnn2C2CCCC2)sc2c1CCCC2 ? active

What did this assay record as the result for COc1cc2[nH]c(=O)n(CCCCCC(=O)NCCCN3CCC(C)CC3)c(=O)c2cc1OC ? inactive

What did this assay record as the result for CC1CCc2cc(F)ccc2N1C(=O)CCC(=O)O (configuration not stated) ? inactive

What did this assay record as the result for CC(=O)Nc1nc(C)c(Oc2ccccc2)c(=O)[nH]1 ? inactive

What did this assay record as the result for CCCOC(=O)c1ccc(-c2c(C)noc2-c2ccc(OC)cc2O)o1 ? inactive

What did this assay record as the result for Cc1[nH]nc2c1C(c1ccc(F)cc1)C(C#N)=C(N)O2 (configuration not stated) ? inactive

What did this assay record as the result for Cc1cc(C(=O)OCC(=O)N2CC(C)CC(C)C2)c(C)o1 (configuration not stated) ? inactive

What did this assay record as the result for Cc1cc(=O)[nH]c2ccccc12 ? inactive

What did this assay record as the result for CCOC(=O)c1sc(NC(=O)c2ccco2)nc1C ? inactive

What did this assay record as the result for CCOc1ccccc1Nc1ccc(C(=O)O)cc1NC(C)=O ? inactive

What did this assay record as the result for CCC(=O)NC1(C(F)(F)F)C(=O)Nc2c1c(=O)n(C)c(=O)n2C (configuration not stated) ? inactive

What did this assay record as the result for Cc1sc(NC(=O)CSc2nnnn2C2CCCC2)c(C#N)c1C ? inactive

What did this assay record as the result for Cc1nc(NC(=O)c2ccco2)sc1C(=O)Nc1ccc(Br)cc1 ? active

What did this assay record as the result for CCOc1ccc(OCC)c(NC(=O)CN2CCN(c3cccc(C)c3C)CC2)c1 ? inactive

What did this assay record as the result for CC(C)c1ccc(NC(=O)c2cnn(-c3ccccc3)c2NC(=O)c2ccco2)cc1 ? inactive

What did this assay record as the result for O=CN1Cc2[nH]c3ccccc3c2N(c2ccc(Cl)cc2)C1=O ? inactive

What did this assay record as the result for O=C(Nc1ccccc1N1CCCC1)c1ccc(Br)o1 ? inactive

What did this assay record as the result for CCOc1ccc(-n2c(Cc3cc(=O)[nH]c(=O)[nH]3)nnc2SC(C)C)cc1 ? inactive

What did this assay record as the result for CCOC(=O)C(CCSC)NC(=O)CN (configuration not stated) ? inactive

What did this assay record as the result for C=COCCNC(=O)C1CC(=O)N(c2ccc(C)cc2)C1 (configuration not stated) ? inactive

What did this assay record as the result for O=C(Nc1cccc(-c2nnc(-c3ccccc3)o2)c1)c1ccco1 ? inactive

What did this assay record as the result for Cc1ccc(CNC(=O)C2C3C=CC(C3)C2C(=O)O)cc1 (configuration not stated) ? inactive

What did this assay record as the result for CCOC(=O)c1c(N)n[nH]c1-c1ccc(OC)cc1 ? inactive

What did this assay record as the result for c1ccc(Cn2nnnc2CN2CCCC2)cc1 ? inactive

What did this assay record as the result for CCOC(=O)COC(=O)c1ccc(O)cc1 ? inactive

What did this assay record as the result for CCOc1ccc(N2C(=O)c3ccc(C(=O)OCc4c(C)noc4C)cc3C2=O)cc1 ? inactive

What did this assay record as the result for CCOC(=O)N1CCN(C(=O)c2cnn3c(C(F)F)cc(-c4ccc(C)cc4)nc23)CC1 ? inactive

What did this assay record as the result for CCc1nc2oc3cc(OC)ccc3c(=O)c2c(=O)n1Cc1ccco1 ? inactive

What did this assay record as the result for COC(=O)c1ccsc1NC(=O)C1COc2ccccc2O1 (configuration not stated) ? inactive

What did this assay record as the result for O=C(Nc1ccc(-c2nc3ncccc3o2)cc1)c1ccco1 ? inactive

What did this assay record as the result for COc1cc(C(=O)N2CCN(c3ccc(C)cc3C)CC2)cc(OC)c1OC ? inactive
